- Test system: IGROV-1
- assay.summary: NCI tumour cell line growth inhibition, 48 h
Activity calls are given as the source filed them. Rule as the data show it: active = GI50 up to about 1.1 µM and inactive = higher.
Assign GI50 to each entry below.

Some compounds with recorded GI50:
| compound | GI50 |
| --- | --- |
| COc1ccc(OC)c(CC(C)N)c1 (stereo unspecified) | > 100 µM (inactive) |
| c1cncc(-c2ncc3cccnc3n2)c1 | > 100 µM (inactive) |
| CCOC(=O)/C(C(=O)NC(C)C)=C(/N)N1CCOCC1 | > 100 µM (inactive) |
| C=C1OC2OC(C)C(NC(=O)OCC(Cl)(Cl)Cl)C(OC(C)=O)C2O1 (stereo unspecified) | > 100 µM (inactive) |
| COC(=O)c1c(O)ccc2c1c1c(n2C)C(=O)c2ccccc2C1=O | 4 µM (inactive) |
| N=C(CC/C(N)=N/O)NO | > 100 µM (inactive) |
| O=C1C(=c2cc3c(c4ccccc24)=NC24CCCCC2C(c2ccccc2)C=C(c2ccccc2)N34)C(=O)c2ccccc21 (stereo unspecified) | 3.08 µM (inactive) |
| O=c1c2cc(Cl)cc(Cl)c2oc2nc3n(c(=O)c12)CCCS3 | > 100 µM (inactive) |

List reported GI50 for each of these compounds:
1. COc1ccc2c(c1)CCC/C2=N\NS(=O)(=O)c1c(C)cc(C)cc1C
2. CC(=O)O[C@H]1CC[C@@]2(C)C(=CC[C@H]3C4=CC=C(C(C)=O)[C@@]4(C)CCC32)C1 (stereo partly specified)
3. NC(=O)c1ncn2c1NCC1OC2C(O)C1O (stereo unspecified)

A)
1: 19 µM (inactive); 2: 56.2 µM (inactive); 3: > 100 µM (inactive)

---

- System: HCC 2998
- assay.summary: NCI tumour cell line growth inhibition, 48 h
Activity calls are given as the source filed them. No stated cut-off is given here; in the data, active = GI50 up to about 1.1 µM and inactive = higher.
# output must be one of class 1 for active, class 0 for inactive

Illustrative cases are given below, each with its answer.
| compound | assayed.system | assigned.class |
| --- | --- | --- |
| [N-]=[N+]=Nc1ccc2c(c1)Sc1ccccc1N2CCCCN1CCN(Cc2ccc(C(=O)c3ccccc3)cc2)CC1 | HCC 2998 | class 0 |
| COC1C(OC(=O)c2ccc(C)[nH]2)C(O)C(Oc2ccc3c(O)c(NC(=O)c4ccc(O)c(CC=C(C)C)c4)c(=O)oc3c2Cl)OC1(C)C (centres undefined) | HCC 2998 | class 0 |

Q) Please state the recorded outcome for this compound: CCOC(=O)c1cc(C(O)P2(=O)N(CC(C)(C)C)[C@@H]3CCCC[C@H]3N2CC(C)(C)C)cn1C(=O)OC(C)(C)C (some centres undefined)
A) class 0

Q) Test call, this compound: O=P(Nc1ccccc1)(Oc1ccccc1)N(CCCl)CCCl (centres undefined)
A) class 0

Q) Could you kindly confirm the outcome this assay logged for CN1C(=O)c2ccccc2OC12C=Cc1c(ccc3ccccc13)O2 (centres undefined) ?
A) class 0

Q) For this compound, state the assay outcome: Cc1cccc(-c2cc(O)c3cc(C)cnc3n2)c1
A) class 1

Q) So what was the verdict on COc1ccc2c(c1)CC[C@@H]1[C@@H]2CC[C@]2(C)C(=O)/C(=C/c3cc(OC)c(OC)c(OC)c3)C[C@@H]12 in this test?
A) class 0

Q) Each compound tested received a call. Report the one for Nc1nc(N)c2ncn(-c3ccccc3)c2n1 .
A) class 0

Q) What did this assay record as the result for O=C(O)CN1CCSc2ccccc2CN(CC(=O)O)CCSc2ccccc2C1 ?
A) class 0
